conditions-used: in ethyl acetate, 293.15 K
endpoint: solubility (mole fraction)
Keep it simple and answer with nothing but the number.

Dear colleague, I am looking for the recorded solubility (mole fraction) of the following compound: O=C(O)CCCCCCCCCCC(=O)O
0.00165

---

conditions-used: in acetone, 288.15 K
endpoint: solubility (mole fraction)
Keep it simple and answer with nothing but the number.

Dear colleague, I am looking for the recorded solubility (mole fraction) of the following molecule: O=C(O)CCCCCCCCCCC(=O)O
0.00286

---

conditions-used: in acetic acid, 293.15 K
endpoint: solubility (mole fraction)
Keep it simple and answer with nothing but the number.

Dear colleague, I am looking for the recorded solubility (mole fraction) of the following compound: O=C(O)CCCCCCCCCCC(=O)O
0.00434

---

conditions-used: in acetic acid, 328.15 K
endpoint: solubility (mole fraction)
Keep it simple and answer with nothing but the number.

Dear colleague, I am looking for the recorded solubility (mole fraction) of the following compound: O=C(O)CCCCCCCCCCC(=O)O
0.0306

---

conditions-used: in acetone, 293.15 K
endpoint: solubility (mole fraction)
Keep it simple and answer with nothing but the number.

Dear colleague, I am looking for the recorded solubility (mole fraction) of the following compound: O=C(O)CCCCCCCCCCC(=O)O
0.00402

---

conditions-used: in ethyl acetate, 308.15 K
endpoint: solubility (mole fraction)
Keep it simple and answer with nothing but the number.

Dear colleague, I am looking for the recorded solubility (mole fraction) of the following molecule: O=C(O)CCCCCCCCCCC(=O)O
0.00461

---

conditions-used: in ethanol, 288.15 K
endpoint: solubility (mole fraction)

Dear colleague, I am looking for the recorded solubility (mole fraction) of the following molecule: O=C(O)CCCCCCCCCCC(=O)O
0.00793

---

conditions-used: in ethyl acetate, 323.15 K
endpoint: solubility (mole fraction)
Keep it simple and answer with nothing but the number.

Dear colleague, I am looking for the recorded solubility (mole fraction) of the following compound: O=C(O)CCCCCCCCCCC(=O)O
0.0121

---

conditions-used: in ethanol, 298.15 K
endpoint: solubility (mole fraction)
Keep it simple and answer with nothing but the number.

Dear colleague, I am looking for the recorded solubility (mole fraction) of the following molecule: O=C(O)CCCCCCCCCCC(=O)O
0.0138

---

conditions-used: in acetone, 323.15 K
endpoint: solubility (mole fraction)
Keep it simple and answer with nothing but the number.

Dear colleague, I am looking for the recorded solubility (mole fraction) of the following molecule: O=C(O)CCCCCCCCCCC(=O)O
0.0238

---

conditions-used: in acetic acid, 303.15 K
endpoint: solubility (mole fraction)
Keep it simple and answer with nothing but the number.

Dear colleague, I am looking for the recorded solubility (mole fraction) of the following compound: O=C(O)CCCCCCCCCCC(=O)O
0.00776

---

conditions-used: in ethanol, 328.15 K
endpoint: solubility (mole fraction)
Keep it simple and answer with nothing but the number.

Dear colleague, I am looking for the recorded solubility (mole fraction) of the following compound: O=C(O)CCCCCCCCCCC(=O)O
0.0648

---

conditions-used: in acetone, 303.15 K
endpoint: solubility (mole fraction)
Keep it simple and answer with nothing but the number.

Dear colleague, I am looking for the recorded solubility (mole fraction) of the following compound: O=C(O)CCCCCCCCCCC(=O)O
0.00757

---

conditions-used: in ethyl acetate, 298.15 K
endpoint: solubility (mole fraction)
Keep it simple and answer with nothing but the number.

Dear colleague, I am looking for the recorded solubility (mole fraction) of the following compound: O=C(O)CCCCCCCCCCC(=O)O
0.00231
